system: P. falciparum male gametocytes; assay: P. falciparum Dual Gamete Formation Assay (PfDGFA), male readout (exflagellation); type: cell-based, Plasmodium falciparum NF54; details: 2µM, 24h preincubation with gametocytes prior to induction of gametogenesis; replicate R4
Recorded Metric: % inhibition male (individual replicates) R4 (%)

# Compound, Observed Result
data = [
    ("O=C(O)C(F)(F)F.c1cc(CNCCN2CCNCC2)cc(-c2cccc(-c3nc4ccccc4[nH]3)c2)c1", 24.9),
    ("Cc1ccc(-n2c(C)nc3c(Nc4ccc(-c5ccncc5)cc4)ncnc32)c(C)c1", -28.8),
    ("CC(C)(C)c1ccc(-c2cc3c(ccc4nc(N)nc(N)c43)[nH]2)cc1", -0.46),
    ("CCc1ccc(N2C(N)=NC(N)=NC2(C)C)cc1.Cl", -34.5),
    ("O=C(O)C(F)(F)F.c1ccc(CN2CCC(NCc3ccc(-c4cccc(CNC5CCCC5)c4)cc3)CC2)cc1", -11.4),
    ("Cc1nc(N)nc(N)c1CCCOc1ccccc1Br", -23.1),
    ("CN1CCN(CCCCNc2c3ccccc3nc3ccccc23)CC1", 45.6),
    ("CC(C)(C)c1ccc(N2C(N)=NC(N)=NC2(C)C)cc1.Cl", -36.5),
    ("Cc1nc(N)nc(N)c1-c1ccc(Br)c([N+](=O)[O-])c1", -48.5),
    ("COc1ccc(CNC2CCN(C)CC2)cc1-c1ccc(S(=O)(=O)NC2CCC2)s1.O=C(O)C(F)(F)F", 49.8),
    ("CC1CCCC(C)N1C[C@@H](O)CNS(=O)(=O)c1cccc(C(F)(F)F)c1.Cl (stereo partly drawn)", 12.9),
    ("CN(C)CCCc1cc2c(cc1Cl)CCN2C(=O)Nc1ccc(-c2ccncc2)c2ccccc12", 8.2),
]

* * *

System: P. falciparum female gametocytes
Test: P. falciparum Dual Gamete Formation Assay (PfDGFA), female readout (Pfs25-positive female gametes)
Type: cell-based, Plasmodium falciparum NF54
Conditions: 2µM, 24h preincubation with gametocytes prior to induction of gametogenesis; replicate R1
Method: […] The Pf DGFA was performed as described in Delves et al. 2016 [17]. […] Exflagellation was recorded by capturing 10 frames over 1 s under brightfield illumination using a x4 objective with a 1.5x zoom (effectively x6) attached to an automated Nikon Ti fluorescence microscope. […] The plates were then returned to the microscope and female gametes imaged at x6 using fluorescence microscopy. […]
Recorded Metric: % inhibition female (individual replicates) R1 (%)

# Compound, Unit Name, Observed Result
data = [
    ("COc1cc(C(=O)NC2CCN(Cc3ccccc3)CC2)ccc1-c1nc2cc(Cl)c(Cl)cc2[nH]1", "%", 17.0),
    ("Cl.c1ccc2c(NCCCCCCCNc3ccnc4ccccc34)ccnc2c1", "%", 24.7),
    ("O=C(O)C(F)(F)F.c1ccc(CN2CCC(NCc3ccc(-c4cccc(CNC5CCCC5)c4)cc3)CC2)cc1", "%", 11.0),
    ("CCc1c(CCNCCCCCCNCCc2ccc([N+](=O)[O-])cc2)ccc(OC)c1OC.Cl", "%", 23.1),
    ("COc1ccccc1N1CCN(CCCCNC(=O)c2ccc(NC(=O)c3ccc(OC(F)(F)F)cc3)cc2)CC1.Cl", "%", 10.5),
    ("CCc1c(CCNCCCC(C)CCNCCc2ccc(OC)c(OC)c2CC)ccc(OC)c1OC.Cl (centres unmarked)", "%", 14.0),
    ("CCc1c(CCNCCCCCCNCCc2ccc3c(c2C)OCO3)ccc2c1OCO2.Cl", "%", 28.1),
    ("Nc1cc2c(C3CCN(CC4CCN(C(=O)/C=C/c5ccc(Cl)c(Cl)c5)CC4)CC3)c[nH]c2cn1", "%", 13.3),
]

* * *

system: HepG2 cells; test: HepG2 cytotoxicity counter-screen; settings: cytotoxic activity against HepG2 cells
Decision: Tox50 >= 6 µM yields 1, all other cases yield 0.

# Compound, Label
measured = [
    ("CCn1c(-c2nonc2N)nc2c(-c3ccccc3)ncc(OCCCNCCCN3CCOCC3)c21.O=C(O)C(F)(F)F", 1),
    ("Cl.OC(CNCCCCCCNCC(O)c1ccc(Cl)c(Cl)c1)c1ccc(Cl)c(Cl)c1 (centres unmarked)", 1),
    ("CC(Nc1cc(-c2ccccn2)nc(-c2ccccn2)n1)c1ccccc1 (centres unmarked)", 1),
    ("Nc1nc(N)c2c(ccc3c2ccn3Cc2ccc(-c3ccccc3)cc2)n1", 0),
    ("Cc1c(Cn2nc(Cl)c(N3CCNCC3)cc2=O)cccc1NC(=O)Nc1ccc(-c2ccccc2)cc1.O=C(O)C(F)(F)F", 0),
    ("Cc1ccccc1OCC(O)CNC1CCC(NCC(O)COc2ccccc2C)CC1 (centres unmarked)", 0),
    ("Cl.O=C1Nc2ccc3ncccc3c2/C1=C/Nc1ccc(N2CCN(CCO)CC2)cc1", 1),
    ("N=C(N)NCCN(Cc1ccccc1)c1ccc(Cl)cc1", 1),
]

* * *

tested on: P. falciparum female gametocytes; assay: P. falciparum Dual Gamete Formation Assay (PfDGFA), female readout (Pfs25-positive female gametes); assay type: cell-based, Plasmodium falciparum NF54; conditions: HepG2 Tox50 versus female IC50

# Molecule, Selectivity ratio F
measured = [
    ("CCN(CC)CC(O)CNc1c2ccc([N+](=O)[O-])cc2nc2cc(OC)c(OC)cc12.Cl (centres unmarked)", 0.86),
    ("CCOc1c(CCNCCCCNCCc2ccc3ccccc3c2OCC)ccc2ccccc12.CS(=O)(=O)O", 1.48),
    ("O=C(Cc1cccc(O)c1)NCC(Cc1ccc(O)cc1)c1ccccc1 (centres unmarked)", 10),
    ("Cc1cc(Nc2ncc(C#N)c(Nc3ccccc3C(N)=O)n2)ccc1N1CCN(C)CC1.Cl", 0.14),
    ("O=C(O)CCSSc1cccc[n+]1[O-]", 117.36),
    ("c1ccc2[nH]c(CN(Cc3nc4ccccc4[nH]3)Cc3nc4ccccc4[nH]3)nc2c1", 10.00),
    ("COc1cc2c(cc1S(=O)(=O)c1ccc(COc3ccc(C(F)(F)F)cc3)cc1)CNCC2.Cl", 1.66),
    ("CN1CCC(NCc2ccc(-c3cnc(NCc4ccccc4)nc3)cc2)CC1.O=C(O)C(F)(F)F", 1.69),
    ("CCS(=O)(=O)Nc1ccc2c(c1)/C(=C(/Nc1ccc(CN3CCCCC3)cc1)c1ccccc1)C(=O)N2", 0.06),
    ("Cc1ccc(C)c(S(=O)(=O)NCC2CCN(Cc3ccc(O)cc3)CC2)c1.O=C(O)C(F)(F)F", 8.16),
    ("CS(=O)(=O)O.FC(F)(F)COc1ccc(CNCCCCCCNCc2ccc(OCC(F)(F)F)c3ccccc23)c2ccccc12", 2.44),
]

* * *

test system: P. falciparum male gametocytes; assay: P. falciparum Dual Gamete Formation Assay (PfDGFA), male readout (exflagellation); format: cell-based, Plasmodium falciparum NF54; details: 2µM, 24h preincubation with gametocytes prior to induction of gametogenesis; replicate R4
Recorded Metric: % inhibition male (individual replicates) R4

# Compound, Observed Result
records = [
    ("O=C(/C=C/c1ccc(Cl)c(Cl)c1)N1CCC(CN2CCC(c3c[nH]c4ccncc34)CC2)CC1", "40.2%"),
    ("COc1cc2nc(N3CCN(C(=O)c4c(Cl)nsc4-c4ccccc4Cl)CC3)nc(N)c2cc1OC.O=C(O)C(F)(F)F", "66.9%"),
    ("COc1ccc(-c2cnc(NCc3ccccc3)nc2)cc1CNC1CCN(C)CC1.O=C(O)C(F)(F)F", "53.6%"),
    ("CN1CCCC1CCNCc1cccc(-c2cnc(N3CCCC(C)(C)C3)nc2)c1 (centres unmarked)", "70.2%"),
    ("COc1ccc(-c2nc3c(N)nc(N)nc3nc2C(C)C)cc1", "-14.5%"),
    ("Nc1nc(N)c2c(ccc3nn(C4CCCC4)cc32)n1", "-27.5%"),
    ("CN(C)CCNCc1ccc(-c2ccc3c(Nc4ccc(Cl)cc4F)ccnc3c2)o1", "79.6%"),
    ("Br.CCCCCCCNCCNc1cc(C)nc2ccccc12", "8.2%"),
]

* * *

system: P. falciparum male gametocytes; test: P. falciparum Dual Gamete Formation Assay (PfDGFA), male readout (exflagellation); assay type: cell-based, Plasmodium falciparum NF54; settings: 2µM, 24h preincubation with gametocytes; average of replicates
Average inhibition male (%) for assorted compounds

# Compound, Average inhibition male (%)
measured = [
    ("CNC(=O)c1ccccc1Nc1nc(Nc2ccc(CCN3CCN(C)CC3)cc2)ncc1Cl.Cl", 96.7),
    ("CS(=O)(=O)O.CSc1ccc2ccccc2c1CCNCCCCNCCc1c(SC)ccc2ccccc12", 90.7),
    ("Cl.N=C(NCCCCC1CCCCC1)c1cccc(C(=N)NCCCCC2CCCCC2)n1", 99.3),
    ("O=[N+]([O-])c1ccc(C=NO)nc1", 97.7),
    ("COc1ccc2nc3cc(Cl)ccc3c(N)c2c1.Cl", 96.0),
    ("COc1cc(Nc2nccc(-c3c(-c4cccc(NC(=O)c5c(F)cccc5F)c4)nn4ncccc34)n2)cc(OC)c1OC", 97.0),
    ("C#CCOc1ccc2ccccc2c1CNCCCCCCNCc1c(OCC#C)ccc2ccccc12.CS(=O)(=O)O", 97.5),
    ("Cl.Cl.c1ccc2c(NCCCCCCNc3c4ccccc4nc4ccccc34)c3ccccc3nc2c1", 93.2),
    ("CC(=NNC(=S)Nc1ccccc1Cl)c1ccccn1", 101.3),
    ("Cc1ccc(Cn2nc(Cl)c(N3CCNCC3)cc2=O)cc1NC(=O)Nc1ccc(-c2ccccc2)cc1.O=C(O)C(F)(F)F", 96.8),
    ("COc1cccc(OC)c1CN1CCC(N(C)CCCCCCCCCN2CCC(OC(=O)Nc3ccccc3-c3ccccc3)CC2)CC1", 94.5),
    ("CNC(=O)c1ccccc1Nc1nc(Nc2cccc(CS(C)(=O)=O)c2)ncc1C.O=CO", 90.9),
    ("C=CCC1OC(=O)c2cc(OC)cc(OC)c21 (stereo not shown)", 100.4),
]
